Tested on: ABL1 (human), P00519 [F317L]
Sequence (P00519 whole entry F317L, looked up): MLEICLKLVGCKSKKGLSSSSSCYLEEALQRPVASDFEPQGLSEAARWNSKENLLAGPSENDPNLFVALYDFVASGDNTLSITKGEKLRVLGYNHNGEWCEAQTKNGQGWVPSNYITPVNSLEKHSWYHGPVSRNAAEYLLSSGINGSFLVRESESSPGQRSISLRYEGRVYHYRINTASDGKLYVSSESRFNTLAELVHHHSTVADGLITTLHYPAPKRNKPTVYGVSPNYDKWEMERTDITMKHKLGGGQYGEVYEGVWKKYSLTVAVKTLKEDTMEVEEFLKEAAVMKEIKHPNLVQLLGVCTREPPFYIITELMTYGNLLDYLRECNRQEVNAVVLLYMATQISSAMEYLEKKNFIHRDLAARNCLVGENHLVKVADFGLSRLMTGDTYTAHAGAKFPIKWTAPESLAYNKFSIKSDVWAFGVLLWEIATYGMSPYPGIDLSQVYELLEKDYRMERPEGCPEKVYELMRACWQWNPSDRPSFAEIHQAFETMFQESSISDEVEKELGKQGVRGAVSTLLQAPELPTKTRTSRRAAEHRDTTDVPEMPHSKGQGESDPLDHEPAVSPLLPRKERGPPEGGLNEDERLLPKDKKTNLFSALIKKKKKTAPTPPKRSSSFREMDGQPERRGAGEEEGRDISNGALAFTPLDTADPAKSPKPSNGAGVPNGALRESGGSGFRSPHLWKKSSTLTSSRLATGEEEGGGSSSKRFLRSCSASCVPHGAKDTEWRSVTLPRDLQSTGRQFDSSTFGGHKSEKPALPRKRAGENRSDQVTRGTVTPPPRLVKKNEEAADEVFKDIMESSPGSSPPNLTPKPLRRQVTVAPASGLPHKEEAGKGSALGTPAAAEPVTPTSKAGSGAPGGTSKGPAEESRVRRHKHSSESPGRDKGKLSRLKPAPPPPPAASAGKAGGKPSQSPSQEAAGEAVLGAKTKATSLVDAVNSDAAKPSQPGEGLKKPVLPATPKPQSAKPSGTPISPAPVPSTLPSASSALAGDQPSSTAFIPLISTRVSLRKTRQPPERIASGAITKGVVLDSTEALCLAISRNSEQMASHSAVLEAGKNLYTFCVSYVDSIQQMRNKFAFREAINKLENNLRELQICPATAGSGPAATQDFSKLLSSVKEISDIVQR
Test: KINOMEscan competition binding
Settings: compound 10.0 µM
measure: kinase still bound, per cent of control
Quick note: unit goes after the number.

In the examples that follow, each entry is paired with its recorded kinase still bound, per cent of control.
{"structure smiles": "COc1cc(N2CCN(C)CC2)ccc1Nc1ncc2c(n1)N(C(C)C)c1ccccc1C(=O)N2", "kinase still bound, per cent of control": "25%"}
{"structure smiles": "COc1cc(N2CCN(C)CC2)ccc1Nc1ncc2c(n1)N(C)c1ccccc1C(=O)N2C", "kinase still bound, per cent of control": "17%"}

Let's switch to this molecule now.
Form field: kinase still bound, per cent of control recorded for COc1cc(N2CCC(O)CC2)ccc1Nc1ncc2c(n1)N(C)c1ccccc1C(=O)N2C with ABL1 (human), P00519 [F317L] (enter value) 23%

* * *

System: FLT3 (human), P36888 [D835H]
Assay: KINOMEscan competition binding
Conditions: compound 10.0 µM
Can you tell me kinase still bound, per cent of control for the items I'm about to list?
One number for each entry, in %.

{"compound": "COc1cc(N2CCN(C)CC2)ccc1Nc1ncc2c(n1)N(C(C)C)c1ccccc1C(=O)N2", "experimental target": "FLT3 (human), P36888 [D835H]", "unit text": "%", "data value": 18}
{"compound": "COc1cc(N2CCN(C)CC2)ccc1Nc1ncc2c(n1)N(C1CCCC1)C(C)CC(=O)N2 (centres undefined)", "experimental target": "FLT3 (human), P36888 [D835H]", "unit text": "%", "data value": 30}
{"compound": "COc1cc(N2CCN(C)CC2)ccc1Nc1ncc2c(n1)N1CCC[C@H]1CC(=O)N2", "experimental target": "FLT3 (human), P36888 [D835H]", "unit text": "%", "data value": 27}
{"compound": "CN1C(=O)[C@H]2CCC[C@H]2N(C2CCCC2)c2nc(Nc3ccc(C(N)=O)cc3)ncc21", "experimental target": "FLT3 (human), P36888 [D835H]", "unit text": "%", "data value": 11}
{"compound": "CC(C)Oc1cc(N2CCN(C)CC2)ccc1Nc1ncc2c(n1)N(C)c1ccccc1C(=O)N2", "experimental target": "FLT3 (human), P36888 [D835H]", "unit text": "%", "data value": 14}

State recorded kinase still bound, per cent of control for all listed compounds.
1. COc1cc(N2CCN(C)CC2)ccc1Nc1ncc2c(n1)N(C)c1ccccc1N(C)C2=O
2. CN1C(=O)c2ccccc2N(C)c2nc(NS(=O)(=O)c3ccc(N)cc3)ncc21
3. N=C1NC(=O)/C(=C/c2ccc(-c3cnc4ccccc4c3)o2)S1

[86, 95, 18]

For COc1cc(N2CCN(C)CC2)ccc1Nc1ncc2c(n1)N(c1ccccc1)CCC(=O)N2 , what is its reported kinase still bound, per cent of control? 18

* * *

Molecular target: CLK1 (human) (UniProt P49759)
Sequence (P49759 whole entry, looked up): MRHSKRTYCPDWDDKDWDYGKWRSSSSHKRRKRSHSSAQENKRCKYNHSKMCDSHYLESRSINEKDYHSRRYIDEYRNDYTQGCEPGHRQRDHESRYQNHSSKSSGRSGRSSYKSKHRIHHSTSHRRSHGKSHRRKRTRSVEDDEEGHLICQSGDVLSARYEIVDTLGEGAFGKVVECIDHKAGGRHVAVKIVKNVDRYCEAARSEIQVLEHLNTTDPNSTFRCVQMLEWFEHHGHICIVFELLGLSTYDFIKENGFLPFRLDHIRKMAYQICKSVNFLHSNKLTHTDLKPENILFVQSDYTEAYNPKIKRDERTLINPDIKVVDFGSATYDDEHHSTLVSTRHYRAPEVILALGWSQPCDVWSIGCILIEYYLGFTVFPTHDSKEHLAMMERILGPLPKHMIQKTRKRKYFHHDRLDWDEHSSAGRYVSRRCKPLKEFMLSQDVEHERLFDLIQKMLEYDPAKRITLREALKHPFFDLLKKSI
Experiment: KINOMEscan competition binding
Conditions: compound 10.0 µM
measure: kinase still bound, per cent of control (%)
One number for each entry, in %.

Quick request: kinase still bound, per cent of control for each listed item, please.
1. O=C1NC(=O)/C(=C/c2c[nH]c(=O)c(-c3ccc(C(=O)Nc4ccc(N5CCNCC5)cc4)cc3)c2)S1
2. N=C1NC(=O)/C(=C/c2ccc(-c3ccc(Cl)cc3)o2)S1
3. N=C1NC(=O)/C(=C/c2ccc(-c3cnc4ccccc4c3)o2)S1
4. N=C1NC(=O)/C(=C/c2ccc(-c3cncc4ccccc34)o2)S1

1. 16
2. 34
3. 15
4. 2

Below is a list of molecules. For each, state its recorded kinase still bound, per cent of control.
1. N=C1NC(=O)/C(=C/c2ccc(-c3ccc(F)cc3O)o2)S1
2. CN1C(=O)[C@H]2CCC[C@H]2N(C2CCCC2)c2nc(Nc3ccc(C(N)=O)cc3)ncc21

1. 1.3
2. 0.9

* * *

Biological target: STK17A (human) (UniProt Q9UEE5)
Sequence (Q9UEE5 whole entry, looked up): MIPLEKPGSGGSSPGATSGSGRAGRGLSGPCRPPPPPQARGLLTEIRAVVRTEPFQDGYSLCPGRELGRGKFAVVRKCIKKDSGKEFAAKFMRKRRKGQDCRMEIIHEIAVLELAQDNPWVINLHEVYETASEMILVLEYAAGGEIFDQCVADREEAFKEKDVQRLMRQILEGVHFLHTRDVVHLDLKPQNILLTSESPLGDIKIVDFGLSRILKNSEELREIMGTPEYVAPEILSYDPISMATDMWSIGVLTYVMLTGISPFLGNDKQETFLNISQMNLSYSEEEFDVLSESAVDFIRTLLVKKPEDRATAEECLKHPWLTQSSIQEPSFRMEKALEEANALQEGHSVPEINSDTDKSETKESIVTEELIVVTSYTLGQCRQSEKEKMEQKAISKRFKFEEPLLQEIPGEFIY
Assay: KINOMEscan competition binding
Conditions: compound 10.0 µM
Mark Fulfilled for kinase still bound, per cent of control under 0.7%, Not fulfilled if at or over.

Would you please look over these solved cases?
{"structure smiles": "COc1cc(C(N)=O)ccc1-c1ccc(/C=C2\\SC(=N)NC2=O)o1", "experimental target": "STK17A (human) (UniProt Q9UEE5)", "class": "Fulfilled"}
{"structure smiles": "N=C1NC(=O)/C(=C/c2ccc(-c3cccc4cc[nH]c34)o2)S1", "experimental target": "STK17A (human) (UniProt Q9UEE5)", "class": "Fulfilled"}
{"structure smiles": "CS(=O)(=O)Nc1ccc(-c2ccc(/C=C3\\SC(=N)NC3=O)o2)cc1", "experimental target": "STK17A (human) (UniProt Q9UEE5)", "class": "Fulfilled"}
{"structure smiles": "COc1cc(N2CCC(O)CC2)ccc1Nc1ncc2c(n1)N1CCc3cccc(c31)C(=O)N2C", "experimental target": "STK17A (human) (UniProt Q9UEE5)", "class": "Not fulfilled"}

Query compound follows.
Take the compound N=C1NC(=O)/C(=C/c2c[nH]c(=O)c(-c3ccc(S(N)(=O)=O)cc3)c2)S1 and say whether its kinase still bound, per cent of control is less than 0.7%. Not fulfilled

* * *

Target: PIM2 (human)
measure: pIC50
Give bare numbers, as −log10 of the molar value.

Known pIC50 results, listed for orientation:
{"structure smiles": "N=C1NC(=O)/C(=C/c2ccc(-c3csc4ccccc34)o2)S1", "data value": 6.20}
{"structure smiles": "N=C1NC(=O)/C(=C/c2ccc(-c3ccc(F)cc3O)o2)S1", "data value": 7.02}
{"structure smiles": "CCN1CCN(Cc2cc(NC(=O)c3cccc4cc(-c5ccc(/C=C6\\SC(=O)NC6=O)o5)ccc34)cc(C(F)(F)F)c2)CC1", "data value": 6.09}

Below: the item to evaluate.
Would you mind telling me what pIC50 value was observed for N=C1NC(=O)/C(=C/c2ccc(-c3ccc(S(N)(=O)=O)cc3)o2)S1 ? 6.30

* * *

Biological target: TNK2 (human) (UniProt Q07912)
Sequence (Q07912 whole entry, looked up): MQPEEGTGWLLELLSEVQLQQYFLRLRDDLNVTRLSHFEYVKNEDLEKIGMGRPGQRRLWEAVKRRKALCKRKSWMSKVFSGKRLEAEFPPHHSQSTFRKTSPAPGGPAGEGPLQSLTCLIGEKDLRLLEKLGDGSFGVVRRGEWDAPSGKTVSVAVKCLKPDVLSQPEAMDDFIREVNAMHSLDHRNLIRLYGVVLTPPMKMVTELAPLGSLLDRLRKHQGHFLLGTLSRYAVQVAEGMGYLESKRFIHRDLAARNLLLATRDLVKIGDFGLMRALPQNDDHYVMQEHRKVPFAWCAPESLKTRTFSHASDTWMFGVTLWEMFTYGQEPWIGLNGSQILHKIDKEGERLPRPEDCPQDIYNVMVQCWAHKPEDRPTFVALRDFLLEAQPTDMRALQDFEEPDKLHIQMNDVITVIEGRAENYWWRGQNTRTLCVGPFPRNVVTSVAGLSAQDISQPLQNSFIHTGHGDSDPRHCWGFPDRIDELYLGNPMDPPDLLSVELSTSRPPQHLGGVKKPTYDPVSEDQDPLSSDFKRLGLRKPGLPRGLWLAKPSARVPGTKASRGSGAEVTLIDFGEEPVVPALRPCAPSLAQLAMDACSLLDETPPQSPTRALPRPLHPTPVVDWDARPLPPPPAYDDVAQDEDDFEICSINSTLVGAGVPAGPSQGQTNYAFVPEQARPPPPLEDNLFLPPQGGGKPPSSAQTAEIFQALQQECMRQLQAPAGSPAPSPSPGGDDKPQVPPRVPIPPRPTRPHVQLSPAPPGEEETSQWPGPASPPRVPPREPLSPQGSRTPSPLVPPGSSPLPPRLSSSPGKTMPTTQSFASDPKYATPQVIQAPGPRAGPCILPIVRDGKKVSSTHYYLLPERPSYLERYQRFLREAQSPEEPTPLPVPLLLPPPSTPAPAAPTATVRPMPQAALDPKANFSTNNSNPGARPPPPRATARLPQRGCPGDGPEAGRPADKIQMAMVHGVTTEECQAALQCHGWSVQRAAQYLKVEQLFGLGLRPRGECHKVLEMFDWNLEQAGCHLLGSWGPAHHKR
Experiment: KINOMEscan competition binding
Conditions: compound 10.0 µM
# thresholds on kinase still bound, per cent of control define classes: group A: < 6%; group B: ≥ 6% and < 20%; group C: ≥ 20%

Worked cases, answers included:
{"structure smiles": "COc1cc(N2CCN(C)CC2)ccc1Nc1ncc2c(n1)N(C)c1sccc1C(=O)N2C", "class": "group C"}
{"structure smiles": "COc1cc(N2CCN(C)CC2)ccc1Nc1ncc2c(n1)N(C(C)C)c1ccccc1C(=O)N2C", "class": "group C"}
{"structure smiles": "CN1CCN(c2ccc(C(=O)Nc3ncc4c(n3)N(C)c3ccccc3C(=O)N4C)cc2)CC1", "class": "group C"}
{"structure smiles": "COc1cc(N2CCN(C)CC2)ccc1Nc1ncc2c(n1)N(c1ccccc1)CCC(=O)N2", "class": "group A"}
{"structure smiles": "COc1cc(N2CCN(C)CC2)ccc1Nc1ncc2c(n1)N1CCC[C@H]1CC(=O)N2", "class": "group B"}

Any idea which band CCOc1cc(N2CCC(O)CC2)ccc1Nc1ncc2c(n1)N(C)c1ccccc1C(=O)N2C is in? group B

# repeat for COc1cc(N2CCN(C)CC2)ccc1Nc1ncc2c(n1)N(C)c1ccccc1C(=O)N2C group A

Repeat with CC(C)Oc1cc(N2CCN(C)CC2)ccc1Nc1ncc2c(n1)N(C)c1ccccc1C(=O)N2 group B

* * *

Please go through the items and note down their kinase still bound, per cent of control.
Biological target: PLK4 (human)
Assay: KINOMEscan competition binding
Conditions: compound 10.0 µM
Give bare numbers, in %.

{"compound": "COc1cc(C(=O)NC2CCC(O)CC2)ccc1Nc1ncc2c(n1)N(C1CCCC1)[C@@H]1CCC[C@@H]1C(=O)N2C (stereo partly specified)", "experimental target": "PLK4 (human)", "unit text": "%", "kinase still bound, per cent of control": 4.3}
{"compound": "CN1CCN(c2ccc(C(=O)Nc3ncc4c(n3)N(C)c3ccccc3C(=O)N4C)cc2)CC1", "experimental target": "PLK4 (human)", "unit text": "%", "kinase still bound, per cent of control": 84}
{"compound": "COc1cc(N2CCN(C)CC2)ccc1Nc1ncc2c(n1)N(C)c1ccccc1N(C)C2=O", "experimental target": "PLK4 (human)", "unit text": "%", "kinase still bound, per cent of control": 67}
{"compound": "COc1cc(N2CCC(O)CC2)ccc1Nc1ncc2c(n1)N(C)c1ccccc1C(=O)N2C", "experimental target": "PLK4 (human)", "unit text": "%", "kinase still bound, per cent of control": 5.9}
{"compound": "N=C1NC(=O)/C(=C/c2ccc(-c3ccc(S(N)(=O)=O)cc3)o2)S1", "experimental target": "PLK4 (human)", "unit text": "%", "kinase still bound, per cent of control": 15}

# input for lookup
Query: kinase still bound, per cent of control; subject: O=C1NC(=S)S/C1=C\c1ccc(-c2cncc3ccccc23)o1 0.85

Just for reference, the kinase profiling compilation of Christmann-Franck et al. (2016) is where these values come from.
